The measurements presented in this section are drawn from paper PMC12434521.

- target-entity: human Kir2.1 (Homo sapiens, UniProt P63252)
- Construct: expressed in transfected cells
- Sequence (P63252 1-427): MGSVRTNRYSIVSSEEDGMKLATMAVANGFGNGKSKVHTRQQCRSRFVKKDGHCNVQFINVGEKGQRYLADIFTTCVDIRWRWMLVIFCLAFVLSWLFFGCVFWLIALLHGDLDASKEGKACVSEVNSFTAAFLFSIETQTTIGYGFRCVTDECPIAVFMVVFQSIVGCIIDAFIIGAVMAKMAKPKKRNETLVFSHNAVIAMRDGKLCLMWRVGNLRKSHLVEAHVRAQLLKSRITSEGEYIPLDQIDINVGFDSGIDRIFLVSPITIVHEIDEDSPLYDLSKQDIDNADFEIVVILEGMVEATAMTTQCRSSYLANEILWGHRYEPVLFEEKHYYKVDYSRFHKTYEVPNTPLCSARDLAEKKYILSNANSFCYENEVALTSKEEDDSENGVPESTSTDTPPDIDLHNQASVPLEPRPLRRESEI
- test-name: Kir2.1 thallium flux assay
- Format: cell-based
- condition-notes: T-REx-HEK-293 cells expressing human Kir2.1; 4PL fit; top concentration 30 μM; read-out: Thallium Flux Potency IC50
pIC50 values for the compounds below.
Keep it numeric: pIC50 is minus log10 of the concentration in mol/L.

Examples with answers:
compound="COc1ccc(CNCc2cncc3ccccc23)cc1 [Compound 5b]" endpoint_value=4.61
compound="COc1ccc(CNCc2ccc(-c3ccc(F)cc3)cc2)cc1 [Compound 5q]" endpoint_value=5.03
compound="COc1ccc(CNCc2ccc(-c3cccc(OC)c3)cc2)cc1 [Compound 13]" endpoint_value=5.33
compound="COc1ccc(CNCc2ccc(-c3cccc(OC)c3)cc2)cc1 [Compound 5s]" endpoint_value=5.23
compound="COc1ccc(CNCc2ccc3c(c2)OC(F)(F)O3)cc1 [Compound 5h]" endpoint_value=4.95
compound="COc1ccc(CNCc2cccc(-c3ccccc3)c2)cc1 [Compound 5j]" endpoint_value=4.89

Name the reported pIC50 value associated with the compound COc1ccc(CNCc2ccc(-c3cccc(OC)c3)cc2)cc1 [Compound 11]
5.37

Similarly, COc1ccc(CNCc2ccc(-c3ccccc3)cc2)cc1 [Compound 5k] ?
5.09

Similarly, COc1ccc(CNCc2ccc(-c3cccc(OC)c3)cc2)cc1 [Compound 9] ?
5.27

Similarly, COc1ccc(CNCc2ccc(-c3cccnc3)cc2)cc1 [Compound 5m] ?
4.97

Similarly, COc1ccc(CNCc2ccc(-c3cccc(C#N)c3)cc2)cc1 [Compound 5t] ?
5.31

Similarly, COc1ccc(CNCc2cccc3ccccc23)cc1 [ML133, reference compound] ?
5.00

----------
- test-name: Rat PK PBL cassette (i.v.)
- Format: in vivo, Sprague-Dawley rat
- condition-notes: Sprague-Dawley, plasma, iv; male SD rat, 0.2 mg/kg i.v. cassette, n = 1; read-out: Elim. t1/2 (converted)
- Description: While ML133 has found use as a Kir2.1 tool molecule across many disease models, the in vivo PK of this and related compounds within the dibenzylamine chemotype have not previously been characterized. […] Specifically, Sprague–Dawley (SD) rats were given 0.2 mg/kg of each Kir2.1 inhibitor (i.v. dosing, 4 compounds +1 control, total dose 1 mg/kg) with PK measured across set time points up to 24 h. […]
property-measured: half-life (h)
Express it in h; write the number only.

compound_smiles=[2H]C([2H])([2H])Oc1ccc(CNCc2cccc3ccccc23)cc1 units_text=h endpoint_value=1.39
compound_smiles=COc1ccc(CNCc2ccc(-c3ccccc3)cc2)cc1 units_text=h endpoint_value=1.68
compound_smiles=COc1ccc(CNCc2ccc(-c3cccc(OC)c3)cc2)cc1 units_text=h endpoint_value=1.56

Name the reported half-life value associated with the compound "COc1ccc(CNCc2ccc(-c3cccc(F)c3)cc2)cc1"
0.69

Similarly, "COc1ccc(CNCc2ccc(-c3cccc(C)c3)cc2)cc1" ?
1.73
